Target: Voltage-gated inwardly rectifying potassium channel KCNH2 (Homo sapiens) (UniProt Q12809)
Sequence (Q12809 whole entry, looked up): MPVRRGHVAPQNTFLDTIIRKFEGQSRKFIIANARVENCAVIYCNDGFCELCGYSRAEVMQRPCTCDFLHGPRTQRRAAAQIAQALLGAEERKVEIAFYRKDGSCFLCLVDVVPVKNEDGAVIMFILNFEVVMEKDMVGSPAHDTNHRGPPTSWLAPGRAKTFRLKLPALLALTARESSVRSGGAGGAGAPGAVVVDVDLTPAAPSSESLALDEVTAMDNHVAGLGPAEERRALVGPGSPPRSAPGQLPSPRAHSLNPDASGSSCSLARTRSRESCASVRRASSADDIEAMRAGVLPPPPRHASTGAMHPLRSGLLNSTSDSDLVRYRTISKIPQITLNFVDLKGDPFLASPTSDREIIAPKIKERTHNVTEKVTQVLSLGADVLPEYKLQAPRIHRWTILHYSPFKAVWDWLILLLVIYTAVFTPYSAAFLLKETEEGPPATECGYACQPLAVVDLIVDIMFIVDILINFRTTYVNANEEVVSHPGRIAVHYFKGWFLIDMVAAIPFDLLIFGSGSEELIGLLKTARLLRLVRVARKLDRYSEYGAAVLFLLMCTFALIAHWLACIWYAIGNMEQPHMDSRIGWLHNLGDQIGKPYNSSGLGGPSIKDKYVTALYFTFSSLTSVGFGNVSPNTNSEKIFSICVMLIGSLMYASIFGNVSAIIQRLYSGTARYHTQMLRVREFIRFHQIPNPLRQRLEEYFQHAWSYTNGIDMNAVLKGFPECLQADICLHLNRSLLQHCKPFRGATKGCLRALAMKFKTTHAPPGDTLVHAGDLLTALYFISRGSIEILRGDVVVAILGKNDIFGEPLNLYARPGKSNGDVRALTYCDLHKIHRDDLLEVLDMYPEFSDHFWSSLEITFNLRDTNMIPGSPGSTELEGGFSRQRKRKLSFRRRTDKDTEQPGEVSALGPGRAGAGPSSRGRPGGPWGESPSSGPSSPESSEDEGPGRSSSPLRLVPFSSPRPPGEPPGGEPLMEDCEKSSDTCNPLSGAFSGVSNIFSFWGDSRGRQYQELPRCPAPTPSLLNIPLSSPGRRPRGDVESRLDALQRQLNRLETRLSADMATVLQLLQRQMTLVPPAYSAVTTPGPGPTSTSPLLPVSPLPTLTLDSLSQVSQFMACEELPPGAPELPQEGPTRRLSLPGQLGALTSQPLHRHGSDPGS
Assay: Human Ether-a-go-go-Related Gene (hERG) channel small molecule antagonists: fluorescence cell-based qHTS assay (AID 1671200);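 also: hERG-expressing U2OS cells given a thallium stimulus after FluxOR II dye loading; nearly all actives have a fitted effect of over 50% in size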
Settings: hERG-U2OS cells, FluxOR thallium flux fluorescence; series mostly up to 76.8 µM
Results filed as inconclusive are left out. Calls of active or inactive are those of the source. Calls follow the shape of the dose curve; as a rule, active = well fitted inhibition curve with a large enough effect in the repeat runs; inconclusive = weak or mixed curves; inactive = flat fitted curve, though single readings scatter.
property_measured: activity change, negative = inhibition

Here's what some known entries look like.
compound: Cc1nc(C2CCCCC2)c(-c2ccc(S(N)(=O)=O)c(F)c2)o1
activity change, negative = inhibition: inactive
--
compound: CO/N=C(\C(=O)N[C@@H]1C(=O)N2C(C(=O)O)=C(CSc3nc(=O)c(O)nn3C)CS[C@H]12)c1csc(N)n1
activity change, negative = inhibition: inactive
--
compound: CC(CO)(CO)[N+](=O)[O-]
activity change, negative = inhibition: inactive
--
compound: CCCCCCCCCC[N+](C)(C)[O-]
activity change, negative = inhibition: inactive

Provide activity change, negative = inhibition value for the following compound: CCOC(=O)COC(=O)c1ccccc1C(=O)OCC inactive
